system: microfilaria of Dirofilaria immitis; test: Method F: microfilaria of Dirofilaria immitis, survival at 24 hours
Some compounds, each annotated with its measured EC50.

{"compound": "C[C@@H]1CN(CC2Cc3cc(F)ccc3O2)[C@@H](C)CN1C(=O)CO[C@H]1CC[C@H](Nc2ccc(C#N)c(C(F)(F)F)c2)CC1 (stereo partly drawn) [Compound 308]", "valueType": "EC50", "result": "< 0.1 µg/mL"}
{"compound": "O=C(NCCO[C@H]1CC[C@H](Nc2ccc([N+](=O)[O-])c(C(F)(F)F)c2)CC1)C(=O)NCc1cc2cc(C(F)(F)F)ccc2o1 [Compound 223]", "valueType": "EC50", "result": "< 0.1 µg/mL"}
{"compound": "N#Cc1ccc(N[C@H]2CC[C@H](OCC(=O)N3CCN(Cc4nc5cc(Cl)ccc5s4)CC3)CC2)cc1C(F)(F)F [Compound 292]", "valueType": "EC50", "result": "< 1 µg/mL"}
{"compound": "N#Cc1ccc(N[C@H]2CC[C@H](OCC(=O)N3CCN(CC4Cc5cc(C(F)(F)F)ccc5O4)CC3)CC2)cc1C(F)(F)F (stereo partly drawn) [Compound 84]", "valueType": "EC50", "result": "< 5 µg/mL"}

For the compound O=C(NCCO[C@H]1CC[C@H](Nc2ccc([N+](=O)[O-])c(C(F)(F)F)c2)CC1)C(=O)NCC1Cc2cc(F)ccc2O1 (stereo partly drawn) [Compound 217] , the measured EC50 on microfilaria of Dirofilaria immitis was < 1 µg/mL

Bench note, microfilaria of Dirofilaria immitis: N#Cc1ccc(N[C@H]2CC[C@H](OCC(=O)N3CCN(Cc4nc5cc(F)ccc5s4)CC3)CC2)cc1C(F)(F)F [Compound 294] , EC50 reads < 5 µg/mL

The value of EC50 recorded for CN(c1ccc([N+](=O)[O-])c(C(F)(F)F)c1)[C@H]1CC[C@H](OCC(=O)N2CCN(c3ccc4cc(Cl)ccc4n3)CC2)CC1 [Compound 246] when tested on microfilaria of Dirofilaria immitis reads < 1 µg/mL

Query N#Cc1ccc(N[C@H]2CC[C@H](OCC(=O)N3CCN(Cc4nc5cc(C(F)(F)F)ccc5s4)CC3)CC2)cc1C(F)(F)F [Compound 301] on microfilaria of Dirofilaria immitis; EC50 returned: < 0.1 µg/mL

Log: microfilaria of Dirofilaria immitis, compound N#Cc1ccc(N[C@H]2CC[C@H](OCC(=O)N3CCN(Cc4cc5cc(C(F)(F)F)ccc5o4)CC3)CC2)cc1C(F)(F)F [Compound 306] , EC50 = < 0.1 µg/mL

Record N#Cc1ccc(N[C@H]2CC[C@H](OCC(=O)N3CCN(Cc4cc5cc(Cl)ccc5o4)CC3)CC2)cc1C(F)(F)F [Compound 274] has microfilaria of Dirofilaria immitis EC50 equal to < 1 µg/mL

Sample CC(O[C@H]1CC[C@H](Nc2ccc([N+](=O)[O-])c(C(F)(F)F)c2)CC1)C(=O)N1CCN(c2ccc3cc(C(F)(F)F)ccc3n2)CC1 (stereo partly drawn) [Compound 249] , system: microfilaria of Dirofilaria immitis. Its EC50 is < 1 µg/mL

EC50 of O=C(CO[C@H]1CC[C@H](Nc2ccc([N+](=O)[O-])c(C(F)(F)F)c2)CC1)N1CCc2cc(Cl)ccc2C1 [Compound 195] , assay on microfilaria of Dirofilaria immitis, is < 1 µg/mL

Data provenance is patent US9249102B2.
